Measured on: Muscarinic acetylcholine receptor M4 (Homo sapiens) (UniProt P08173)
Sequence (P08173 whole entry, looked up): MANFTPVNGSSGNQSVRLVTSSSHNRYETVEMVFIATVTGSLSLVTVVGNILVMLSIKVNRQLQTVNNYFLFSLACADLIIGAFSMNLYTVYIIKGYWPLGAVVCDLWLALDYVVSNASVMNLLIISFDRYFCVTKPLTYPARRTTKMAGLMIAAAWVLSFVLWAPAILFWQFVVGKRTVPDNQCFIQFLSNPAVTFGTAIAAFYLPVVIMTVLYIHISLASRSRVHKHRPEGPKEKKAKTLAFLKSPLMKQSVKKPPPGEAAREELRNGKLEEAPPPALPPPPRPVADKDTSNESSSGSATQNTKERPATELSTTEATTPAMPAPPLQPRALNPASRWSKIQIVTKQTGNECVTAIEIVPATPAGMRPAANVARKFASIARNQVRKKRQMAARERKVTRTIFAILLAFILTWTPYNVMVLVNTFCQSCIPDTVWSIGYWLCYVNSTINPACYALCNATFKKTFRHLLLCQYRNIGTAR
Experiment: M4-linked GIRK flux change, two-sided – cell-based, HEK293 M4/GIRK, thallium flux, BTC-AM, M4 allosteric agonist project, primary screen (AID 625);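 also: thallium influx through GIRK channels coupled to M4 in HEK293 cells with BTC-AM dye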
Test conditions: at 10 µM, actives lie on both sides
Activity calls are given as the source filed them.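 The calls were made as follows: active = fluorescence slope after compound addition differing from the mean of all tested samples at 99.7% confidence, mostly higher but some lower; inactive = the rest.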
Listed here are molecules together with their documented fluorescence slope.

>>> assay_value("CCCCCn1c(=O)[nH]c2cc(C(=O)NCCN3CCOCC3)ccc2c1=O")
"0.00658 (inactive)"
>>> assay_value("CC1C(O)=C(c2nc3ccccc3[nH]2)C(=N)N1c1ccccc1 (stereo unspecified)")
"0.00621 (inactive)"
>>> assay_value("CCOC(=O)c1cc(-c2ccc3c(c2)OCO3)nc2onc(C)c12")
"0.00537 (inactive)"

Given item CCCCc1ccc(NC(=O)COCC)cc1 , the value recorded as its fluorescence slope is 0.00366 (inactive)

Given item CC(C)(C)C(=O)Oc1cc(N)n(S(=O)(=O)c2ccccc2)n1 , the value recorded as its fluorescence slope is 0.00539 (inactive)

Given item COc1ccc(CN2C(=O)C(O)(CC(=O)c3c(C)n[nH]c3C)c3ccccc32)cc1OC (stereo unspecified) , the value recorded as its fluorescence slope is 0.00507 (inactive)

Given item O=C(CN1CCOCC1)N1CCN(C(=O)CN2CCOCC2)CC1 , the value recorded as its fluorescence slope is 0.00604 (inactive)

Given item CCOc1ccccc1NC(=O)C1CCCN(C(=O)NCc2ccccc2)C1 (stereo unspecified) , the value recorded as its fluorescence slope is 0.00645 (inactive)

Given item CC1(c2ccncc2)Nc2ccccc2-c2nc3ccccc3n21 (stereo unspecified) , the value recorded as its fluorescence slope is 0.00581 (inactive)

Given item COC(=O)CCCCCNc1ccc(C(=O)OC)cc1N , the value recorded as its fluorescence slope is 0.00505 (inactive)

Given item COC(=O)c1[nH]c2ccccc2c1NC(=O)CN1CCC(C(N)=O)(N2CCCCC2)CC1 , the value recorded as its fluorescence slope is 0.00286 (inactive)

The reported measurements were obtained from PubChem BioAssay.
